The following compounds each carry a recorded pIC50 for UniProt P12931.
Just so you know, pIC50 here is -log10 of the concentration in molar units; reply with that number alone.

Specify measured pIC50 for CCCCc1noc([C@H](CCC(N)=O)NC(=O)[C@H](Cc2ccc(OP(=O)(O)O)cc2)NC(C)=O)n1 .
3.42

Supply reported pIC50 belonging to this compound: CC(=O)N[C@@H](Cc1ccc(OP(=O)(O)O)cc1)C(=O)NCc1nc(CC2CCCCC2)no1
3.05

Hello, please tell me recorded pIC50 for this one: CC(=O)N[C@@H](Cc1ccc(OP(=O)(O)O)cc1)C(=O)N[C@@H](CCC(=O)O)c1ncc(CC2CCCCC2)s1
4.80

Specify reported pIC50 for the compound shown: CC(=O)N[C@@H](Cc1ccc(OP(=O)(O)O)cc1)C(=O)N[C@@H](CCC(=O)O)c1nc(CC(C)C)no1
3.78

Quote pIC50 reported for CC(=O)N[C@@H](Cc1ccc(OP(=O)(O)O)cc1)C(=O)N[C@@H](CCC(=O)O)c1nc(CC2CCCCC2)no1 please.
4.54

Indicate its recorded pIC50; the compound in question is CCCCCc1noc([C@H](CC)NC(=O)[C@H](Cc2ccc(OP(=O)(O)O)cc2)NC(C)=O)n1
4.19

Complete the entry with pIC50 for CCCCCCc1noc([C@H](CCC(N)=O)NC(=O)[C@H](Cc2ccc(OP(=O)(O)O)cc2)NC(C)=O)n1
4.62

Give pIC50 for CC(=O)N[C@@H](Cc1ccc(OP(=O)(O)O)cc1)C(=O)N[C@@H](Cc1c[nH]c2ccccc12)c1nc(Cc2ccccc2)no1
4.60

Provide only the value of recorded pIC50 for CC(=O)N[C@@H](Cc1ccc(OP(=O)(O)O)cc1)C(=O)N[C@@H](CCC(=O)O)c1nc(CC2CCCCC2)cs1
4.59

====

Could you please report measured IC50 for the items listed next?
Note: unit µM is implicit; provide only the numeric part.

State IC50 (Proto-oncogene tyrosine-protein kinase Src (Homo sapiens, UniProt P12931)) of CC(=O)N[C@@H](Cc1ccc(OP(=O)(O)O)cc1)C(=O)N[C@@H](CCC(N)=O)c1nc(CC2CCCCC2)no1 .
278

Fill in: IC50 on Proto-oncogene tyrosine-protein kinase Src (Homo sapiens, UniProt P12931), entry CCCCCCc1noc([C@H](Cc2c[nH]c3ccccc23)NC(=O)[C@H](Cc2ccc(OP(=O)(O)O)cc2)NC(C)=O)n1
Sequence (P12931 2-536 limits assumed): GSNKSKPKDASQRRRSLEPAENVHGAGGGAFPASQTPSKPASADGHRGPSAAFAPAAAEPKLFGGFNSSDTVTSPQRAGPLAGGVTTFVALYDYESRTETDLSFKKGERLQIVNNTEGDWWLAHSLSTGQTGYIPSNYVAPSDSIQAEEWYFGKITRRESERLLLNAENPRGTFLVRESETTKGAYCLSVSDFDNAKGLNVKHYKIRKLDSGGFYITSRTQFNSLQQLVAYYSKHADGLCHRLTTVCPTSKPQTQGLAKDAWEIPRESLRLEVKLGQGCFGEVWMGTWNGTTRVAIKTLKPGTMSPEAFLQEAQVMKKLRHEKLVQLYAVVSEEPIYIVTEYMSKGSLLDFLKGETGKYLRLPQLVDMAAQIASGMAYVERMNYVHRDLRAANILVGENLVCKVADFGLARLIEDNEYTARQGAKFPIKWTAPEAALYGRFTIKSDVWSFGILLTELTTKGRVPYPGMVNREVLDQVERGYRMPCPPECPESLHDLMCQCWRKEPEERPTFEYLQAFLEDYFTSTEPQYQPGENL
16

Param request: IC50 | system Proto-oncogene tyrosine-protein kinase Src (Homo sapiens, UniProt P12931) | item CCCCCCc1noc([C@H](CC)NC(=O)[C@H](Cc2ccc(OP(=O)(O)O)cc2)NC(C)=O)n1
25

Write down the reported IC50 (system: Proto-oncogene tyrosine-protein kinase Src (Homo sapiens, UniProt P12931)) of CC[C@H](NC(=O)[C@H](Cc1ccc(OP(=O)(O)O)cc1)NC(C)=O)c1nc(CCC(C)C)no1
111

Just for reference, ChEMBL document CHEMBL1132393 is where these values come from.
